Source of measurements: paper PMC3712578

# MEASURED_ON: RSK2 (Homo sapiens, UniProt P51812)
# Construct: gene RPS6KA3
# Sequence (P51812 whole entry): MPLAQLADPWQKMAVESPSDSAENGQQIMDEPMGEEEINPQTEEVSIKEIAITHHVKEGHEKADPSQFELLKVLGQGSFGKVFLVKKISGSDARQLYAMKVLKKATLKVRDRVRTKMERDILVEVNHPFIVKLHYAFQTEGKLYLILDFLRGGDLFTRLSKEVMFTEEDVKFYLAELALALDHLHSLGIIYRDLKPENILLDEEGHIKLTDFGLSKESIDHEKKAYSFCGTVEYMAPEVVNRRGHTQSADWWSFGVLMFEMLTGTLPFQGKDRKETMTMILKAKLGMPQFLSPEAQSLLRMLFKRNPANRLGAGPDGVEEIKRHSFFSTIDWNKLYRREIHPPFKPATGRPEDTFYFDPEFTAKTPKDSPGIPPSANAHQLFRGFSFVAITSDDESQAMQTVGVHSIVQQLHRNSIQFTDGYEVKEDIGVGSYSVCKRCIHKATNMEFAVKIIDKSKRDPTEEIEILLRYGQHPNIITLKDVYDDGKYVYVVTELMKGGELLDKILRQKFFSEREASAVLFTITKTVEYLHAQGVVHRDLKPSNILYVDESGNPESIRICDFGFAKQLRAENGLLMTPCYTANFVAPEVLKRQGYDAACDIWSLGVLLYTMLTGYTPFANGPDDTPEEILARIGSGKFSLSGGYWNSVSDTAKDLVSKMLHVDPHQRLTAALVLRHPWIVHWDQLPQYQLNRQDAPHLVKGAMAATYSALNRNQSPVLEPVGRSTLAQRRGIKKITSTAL
# PROTOCOL_DETAILS: in vitro RSK2 kinase assay, YB-1 peptide substrate
# Assay type: biochemical
REPORTED_PROPERTY: pIC50
// pIC50 is dimensionless: -log10 of concentration (M)

Provide only the value of recorded pIC50 for "O=c1cc(-c2ccc(O)cc2)oc2cc(O)cc(O)c12"
5.32

----------
Measured pIC50, listed per entry for reference.
# MEASURED_ON: RSK1 (Homo sapiens)
# Sequence (Q15418 whole entry): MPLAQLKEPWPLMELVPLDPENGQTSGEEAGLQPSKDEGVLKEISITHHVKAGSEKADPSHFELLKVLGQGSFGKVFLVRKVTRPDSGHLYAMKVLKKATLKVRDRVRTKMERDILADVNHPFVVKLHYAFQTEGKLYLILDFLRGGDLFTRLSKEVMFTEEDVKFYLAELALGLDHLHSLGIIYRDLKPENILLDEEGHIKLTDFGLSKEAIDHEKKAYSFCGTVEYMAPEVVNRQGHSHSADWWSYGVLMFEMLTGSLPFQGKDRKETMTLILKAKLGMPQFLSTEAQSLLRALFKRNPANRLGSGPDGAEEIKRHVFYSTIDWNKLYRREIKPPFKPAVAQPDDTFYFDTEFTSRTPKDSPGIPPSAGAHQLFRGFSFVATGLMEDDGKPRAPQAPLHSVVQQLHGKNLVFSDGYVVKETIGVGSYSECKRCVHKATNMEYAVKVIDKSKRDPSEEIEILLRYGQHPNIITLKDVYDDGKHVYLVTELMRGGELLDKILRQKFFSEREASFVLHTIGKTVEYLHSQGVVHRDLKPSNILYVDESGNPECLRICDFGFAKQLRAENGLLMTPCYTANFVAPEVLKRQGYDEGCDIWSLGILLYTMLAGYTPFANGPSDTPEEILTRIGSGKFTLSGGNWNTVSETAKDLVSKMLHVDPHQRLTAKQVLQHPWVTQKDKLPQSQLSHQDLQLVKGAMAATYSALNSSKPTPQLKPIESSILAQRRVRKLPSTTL
// pIC50 is dimensionless: -log10 of concentration (M)

Provide only the value of recorded pIC50 for "O=c1cc(-c2ccc(O)cc2)oc2cc(O)cc(O)c12"
5.42

Now, please, on to the next molecule.
Provide only the value of recorded pIC50 for "O=c1cc(-c2ccc(O)c(O)c2)oc2cc(O)cc(O)c12"
5.65

----------
# MEASURED_ON: RSK2 (Homo sapiens, UniProt P51812)
# Construct: gene RPS6KA3
# PROTOCOL_DETAILS: in vitro RSK2 kinase assay, YB-1 peptide substrate
# Assay type: biochemical
# CONDITION_SET: read-out: Inhibition of RSK2 (%) against the YB-1 peptide as the substrate / IC50
REPORTED_PROPERTY: IC50 (µM)
Record the value in µM, omitting the unit from your answer.

Provide only the value of recorded IC50 for "O=c1cc(-c2ccc(O)c(O)c2)oc2cc(O)cc(O)c12"
4.42

Now, please, on to the next compound.
Provide only the value of recorded IC50 for "O=c1c(O)c(-c2ccc(O)cc2)oc2cc(O)cc(O)c12"
1.71
